# Read-out: Monocyte Chemoattractant Protein-1 (MCP1), CCL2 (gene 6347)
# ASSAY REMARKS: BSK_3C_MCP1: BioMAP Diversity Plus: 3C Assay for Monocyte Chemoattractant Protein-1 (MCP1) Biomarker Activity (AID 2283017)
# CONDITION DETAILS: primary human endothelial cells (HUVEC); actives raise or lower the signal
Activity calls are given as the source filed them. The calls were made as follows: active = hit-call score of the fitted dose curve at least 0.9, where 1 is the maximum; inactive = score below 0.9.
Outcomes: active, inactive

MOLECULE: Oc1c(I)cc(I)cc1I
ASSIGNED CATEGORY: active
--
MOLECULE: O=S(=O)(c1ccc(Cl)cc1)c1ccc(Cl)cc1
ASSIGNED CATEGORY: inactive
--
MOLECULE: CC(C)(OO)c1ccccc1
ASSIGNED CATEGORY: inactive
--
MOLECULE: COC[C@H](C)N(C(=O)CCl)c1c(C)csc1C
ASSIGNED CATEGORY: inactive
--
MOLECULE: O=[N+]([O-])c1ccc2c3c(cccc13)CC2
ASSIGNED CATEGORY: inactive
--
MOLECULE: CCOP(=S)(OCC)SCCS(=O)(=O)CC
ASSIGNED CATEGORY: inactive
--
MOLECULE: Nc1ncc([N+](=O)[O-])s1
ASSIGNED CATEGORY: inactive
--
MOLECULE: CCOP(=S)(OCC)SCSP(=S)(OCC)OCC
ASSIGNED CATEGORY: inactive
--
MOLECULE: Cc1ccccc1N
ASSIGNED CATEGORY: inactive
--
MOLECULE: ClC(Cl)=C(Cl)C(Cl)=C(Cl)Cl
ASSIGNED CATEGORY: active
--
MOLECULE: COP(=S)(OC)Oc1c(Cl)cc(C)cc1Cl
ASSIGNED CATEGORY: active
--
MOLECULE: Nc1cccc2ccccc12
ASSIGNED CATEGORY: inactive
--
MOLECULE: CCCCCCCCc1ccc(O)cc1
ASSIGNED CATEGORY: active
--
MOLECULE: O=[N+]([O-])c1ccc(O)c([N+](=O)[O-])c1
ASSIGNED CATEGORY: inactive
--
MOLECULE: CCCCC(CC)CO[N+](=O)[O-] (centres undefined)
ASSIGNED CATEGORY: inactive
--
MOLECULE: CCNc1nc(NC(C)(C)C)nc(SC)n1
ASSIGNED CATEGORY: inactive
--
MOLECULE: CCN1CCC2(CC1)COc1cc3c(cc12)N(C(=O)c1ccc(-c2ccc(-c4nnc(C)o4)cc2C)cc1)CC3
ASSIGNED CATEGORY: active
--
MOLECULE: CC(C)(C)c1cc(O)ccc1O
ASSIGNED CATEGORY: active
--
MOLECULE: CCC(C)(C)c1ccc(O)c(C(C)(C)CC)c1
ASSIGNED CATEGORY: active
--
MOLECULE: CC1(C)Cc2cccc(O)c2O1
ASSIGNED CATEGORY: inactive
--
MOLECULE: O=C(O)C(Cl)(Cl)Cl
ASSIGNED CATEGORY: inactive
--
MOLECULE: CCOP(=S)(OCC)Oc1nc(Cl)c(Cl)cc1Cl
ASSIGNED CATEGORY: active
--
MOLECULE: CCOP(=S)(OCC)Oc1ccc(S(C)=O)cc1 (centres undefined)
ASSIGNED CATEGORY: inactive
--
MOLECULE: O=Cc1cccc(Oc2ccccc2)c1
ASSIGNED CATEGORY: inactive
--
MOLECULE: BrCCBr
ASSIGNED CATEGORY: inactive
--
MOLECULE: CCSC(C)CC1CC(=O)C(C(CC)=NOC/C=C/Cl)=C(O)C1 (centres undefined)
ASSIGNED CATEGORY: inactive
--
MOLECULE: COC(=O)Cc1ccccc1
ASSIGNED CATEGORY: inactive
--
MOLECULE: O=C1C2(Cl)C3(Cl)C4(Cl)C(Cl)(Cl)C5(Cl)C3(Cl)C1(Cl)C5(Cl)C24Cl (centres undefined)
ASSIGNED CATEGORY: active
--
MOLECULE: Oc1cccc2cccnc12
ASSIGNED CATEGORY: inactive
